ASSAY_OVERVIEW: Dog PK study #4 (Compound A PO daily 14 days, 1/3/10 mg/kg; toxicokinetics, platelet counts)
Format: in vivo, beagle dogs
ASSAY_CONDITIONS: both sexes, beagle, dog, plasma, oral; after daily administration for 14 days, 1 mg/kg, Pooled Mean, 1 h
MEASURED_PARAMETER: concentration at 1 h (ng/mL)
All answers are understood in ng/mL, so give the number only.

# input # concentration at 1 h lookup, item Cn1cc(-c2ccccc2)c(-c2cn(C)c(=O)c3[nH]c(-c4cnn(C(F)(F)F)c4)cc23)cc1=O
# output 57.3

* * *

ASSAY_OVERVIEW: Dog PK study #4 (Compound A PO daily 14 days, 1/3/10 mg/kg; toxicokinetics, platelet counts)
Assay type: in vivo, beagle dogs
ASSAY_CONDITIONS: beagle, dog, plasma, oral; after daily administration for 14 days, 1 mg/kg, Female, 8 h
Method: The different doses of compound A were orally administered to animals (n=2/group, one male and one female animal) daily for 14 days. Blood samples were collected at 0.5, 1, 2, 4, 8, and 24 hours after administration of Compound A on Day 14, and EDTA-K2 was used as an anticoagulant. […] The concentration of Compound A in the blood plasma was determined through liquid chromatography-mass spectrometry (LC-MS). […]
MEASURED_PARAMETER: concentration at 8 h (ng/mL)
Numbers only here, please. The scale is ng/mL.

# input Report concentration at 8 h for Cn1cc(-c2ccccc2)c(-c2cn(C)c(=O)c3[nH]c(-c4cnn(C(F)(F)F)c4)cc23)cc1=O please.
# output 25.7

* * *

ASSAY_OVERVIEW: Rat PK study #4 (Compound A PO 0.2 and 1.0 mg/kg, propylene glycol formulation)
Type: in vivo, Lewis rats
ASSAY_CONDITIONS: male, Lewis, rat, plasma, po, 0.2 mg/kg, Lewis rats, PO 0.2 mg/kg, propylene glycol-based formulation, 8 h, mean of 3 animals
MEASURED_PARAMETER: concentration at 8 h (ng/mL)
Numeric answer only, unit ng/mL assumed.

# input concentration at 8 h for Cn1cc(-c2ccccc2)c(-c2cn(C)c(=O)c3[nH]c(-c4cnn(C(F)(F)F)c4)cc23)cc1=O [Compound A] ?
# output 3.96

* * *

ASSAY_OVERVIEW: Dog PK study #1 (Compound A IV and PO, propylene glycol formulation)
Type: in vivo, beagle dogs
ASSAY_CONDITIONS: beagle, dog, plasma, po, 5 mg/kg, oral 5 mg/kg; mean
MEASURED_PARAMETER: half-life (h)
Field: numeric (h). Do not append units.

# input Recorded half-life of Cn1cc(-c2ccccc2)c(-c2cn(C)c(=O)c3[nH]c(-c4cnn(C(F)(F)F)c4)cc23)cc1=O , please.
# output 4.07

* * *

ASSAY_OVERVIEW: Rat PK study #4 (Compound A PO 0.2 and 1.0 mg/kg, propylene glycol formulation)
Type: in vivo, Lewis rats
ASSAY_CONDITIONS: male, Lewis, rat, plasma, po, 0.2 mg/kg, Lewis rats, PO 0.2 mg/kg, propylene glycol-based formulation, 6 h, mean of 3 animals
MEASURED_PARAMETER: concentration at 6 h (ng/mL)
The response must be a number in ng/mL with no trailing unit.

# input Find the recorded concentration at 6 h belonging to Cn1cc(-c2ccccc2)c(-c2cn(C)c(=O)c3[nH]c(-c4cnn(C(F)(F)F)c4)cc23)cc1=O [Compound A] and report it.
# output 4.48

* * *

ASSAY_OVERVIEW: CIA study: pharmacokinetics / plasma concentration after oral administration
Assay type: in vivo, Lewis rats
ASSAY_CONDITIONS: Lewis, rat, plasma, po, 3 mg/kg, CIA-induced animals, day 0, 3 mg/kg, individual test subjects; read-out: Tmax
MEASURED_PARAMETER: Tmax (h)
Write the number in h without appending the unit.

# input Item Cn1cc(-c2ccccc2)c(-c2cn(C)c(=O)c3[nH]c(-c4cnn(C(F)(F)F)c4)cc23)cc1=O [Compound A] has what recorded Tmax?
# output 6

* * *

ASSAY_OVERVIEW: Dog PK study #1 (Compound A IV and PO, propylene glycol formulation)
Assay type: in vivo, beagle dogs
ASSAY_CONDITIONS: beagle, dog, plasma, iv, 1 mg/kg, IV 1 mg/kg, 2 h; mean; read-out: Average plasma concentration
MEASURED_PARAMETER: concentration at 2 h (ng/mL)
Response body: numeric value in ng/mL, unit text excluded.

# input Could you share which concentration at 2 h value was measured for Cn1cc(-c2ccccc2)c(-c2cn(C)c(=O)c3[nH]c(-c4cnn(C(F)(F)F)c4)cc23)cc1=O ?
# output 586

* * *

ASSAY_OVERVIEW: Dog PK study #4 (Compound A PO daily 14 days, 1/3/10 mg/kg; toxicokinetics, platelet counts)
Format: in vivo, beagle dogs
ASSAY_CONDITIONS: beagle, dog, plasma, oral; after daily administration for 14 days, 10 mg/kg, Female, 24 h
MEASURED_PARAMETER: concentration at 24 h (ng/mL)
Give your result in ng/mL as a bare value.

# input Report concentration at 24 h for Cn1cc(-c2ccccc2)c(-c2cn(C)c(=O)c3[nH]c(-c4cnn(C(F)(F)F)c4)cc23)cc1=O [Compound A] please.
# output 61.6

* * *

ASSAY_OVERVIEW: Dog PK study #3 (Compound A PO once daily 5 days, 5/10/20 mg/kg; PK, body weight, hematology)
Assay type: in vivo, beagle dogs
ASSAY_CONDITIONS: male, beagle, dog, plasma, po, 10 mg/kg, Day 1, 10 mg/kg dose PO; mean
MEASURED_PARAMETER: AUC(0-t) (ng·h/mL)
Numbers only; they are read as ng·h/mL.

# input What does the data say about its AUC(0-t)? Entry: Cn1cc(-c2ccccc2)c(-c2cn(C)c(=O)c3[nH]c(-c4cnn(C(F)(F)F)c4)cc23)cc1=O
# output 17500

* * *

TESTED_SYSTEM: BRD4 BD2 (Homo sapiens)
Construct: HEK293 cells were transfected using NanoLuc-BRD4-BD1 or NanoLuc-BRD4-BD2 fusion vectors
ASSAY_OVERVIEW: NanoBRET bromodomain assay, NanoLuc-BRD4-BD2 in HEK293 cells
Here, each record is paired with measured IC50 data.

Below, each entry is followed by its recorded IC50 result.
COMPOUND_STRING | TESTED_SYSTEM | IC50
Cc1cccc(C)c1Oc1cn(C)c(=O)cc1-c1cn(C)c(=O)c2[nH]c(-c3cnn(C(F)(F)F)c3)cc12 | BRD4 BD2 (Homo sapiens) | < 0.01 µM
Cn1cc(-c2ccccc2)c(-c2cn(C)c(=O)c3[nH]c(-c4ccccc4F)cc23)cc1=O | BRD4 BD2 (Homo sapiens) | < 0.01 µM
Cc1cccc(C)c1Oc1cn(C2CC2)c(=O)cc1-c1cn(C)c(=O)c2[nH]c(-c3ccc(F)cc3F)cc12 | BRD4 BD2 (Homo sapiens) | < 0.01 µM
COc1cccc(-c2cc3c(-c4cc(=O)n(C5CC5)cc4Oc4c(C)cccc4C)cn(C)c(=O)c3[nH]2)c1F | BRD4 BD2 (Homo sapiens) | 0.01 to 0.05 µM
Cc1cccc(C)c1Oc1cn(C)c(=O)cc1-c1cn(C)c(=O)c2[nH]c(-c3cccc(CO)c3F)cc12 | BRD4 BD2 (Homo sapiens) | < 0.01 µM

Next up:
# input Query (compound): Cn1cc(-c2cc(=O)n(C3CC3)cc2-c2ccccc2)c2cc(-c3ccc(F)cc3F)[nH]c2c1=O ; field requested: IC50
# output < 0.01 µM

* * *

ASSAY_OVERVIEW: Dog PK study #4 (Compound A PO daily 14 days, 1/3/10 mg/kg; toxicokinetics, platelet counts)
Assay type: in vivo, beagle dogs
ASSAY_CONDITIONS: beagle, dog, plasma, oral; after daily administration for 14 days, 3 mg/kg, Female, 1 h
MEASURED_PARAMETER: concentration at 1 h
Give the figure together with its unit, number first.

# input Which measured concentration at 1 h value corresponds to Cn1cc(-c2ccccc2)c(-c2cn(C)c(=O)c3[nH]c(-c4cnn(C(F)(F)F)c4)cc23)cc1=O ?
# output 324 ng/mL

* * *

ASSAY_OVERVIEW: Dog PK study #3 (Compound A PO once daily 5 days, 5/10/20 mg/kg; PK, body weight, hematology)
Type: in vivo, beagle dogs
ASSAY_CONDITIONS: male, beagle, dog, plasma, po, 20 mg/kg, Day 5, 20 mg/kg dose PO; mean; read-out: Cmax
MEASURED_PARAMETER: Cmax
Answer with the figure and its unit, nothing else.

# input Name the recorded Cmax for Cn1cc(-c2ccccc2)c(-c2cn(C)c(=O)c3[nH]c(-c4cnn(C(F)(F)F)c4)cc23)cc1=O [Compound A] .
# output 2860 ng/mL

* * *

ASSAY_OVERVIEW: Rat PK study #4 (Compound A PO 0.2 and 1.0 mg/kg, propylene glycol formulation)
Type: in vivo, Lewis rats
ASSAY_CONDITIONS: male, Lewis, rat, plasma, po, 1 mg/kg, 1 mg/kg PO, propylene glycol-based formulation; individual animals
MEASURED_PARAMETER: Tmax (h)
Express your answer in h, writing the number without its unit.

# input Looking for the measured Tmax of Cn1cc(-c2ccccc2)c(-c2cn(C)c(=O)c3[nH]c(-c4cnn(C(F)(F)F)c4)cc23)cc1=O , can you help?
# output 2
